I'd appreciate it if you could supply SHP2 degradation (%) 10 nM values for the items below.
# assay-target: SHP2 protein (Homo sapiens)
# Sequence (Q06124 whole entry): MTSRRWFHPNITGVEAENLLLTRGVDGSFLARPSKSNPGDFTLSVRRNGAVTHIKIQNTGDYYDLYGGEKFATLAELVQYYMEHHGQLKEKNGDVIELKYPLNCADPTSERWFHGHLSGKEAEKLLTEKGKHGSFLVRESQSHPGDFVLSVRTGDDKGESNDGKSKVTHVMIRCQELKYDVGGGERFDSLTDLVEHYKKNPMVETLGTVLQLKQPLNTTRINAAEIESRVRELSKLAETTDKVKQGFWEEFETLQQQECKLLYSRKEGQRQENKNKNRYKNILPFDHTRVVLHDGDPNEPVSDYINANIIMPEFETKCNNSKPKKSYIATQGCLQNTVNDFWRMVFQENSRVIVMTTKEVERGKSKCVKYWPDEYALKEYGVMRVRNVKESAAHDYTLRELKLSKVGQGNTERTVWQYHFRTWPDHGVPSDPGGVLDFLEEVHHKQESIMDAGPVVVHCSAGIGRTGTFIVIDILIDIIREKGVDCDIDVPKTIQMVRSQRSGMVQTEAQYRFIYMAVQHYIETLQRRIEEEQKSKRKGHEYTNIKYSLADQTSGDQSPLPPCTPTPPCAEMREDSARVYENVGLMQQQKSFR
# run-description: Measurement of SHP2 protein degradation in MV-4-11 cells (western blotting)
# Type: cell-based
# Parameters: endogenous in cells; host or cells: MV-4-11
# measurement-setup: MV-4-11 cells, 10 nM, 24 hours
One number for each entry, in %.

[in] Query for SHP2 protein (Homo sapiens): what SHP2 degradation (%) 10 nM does the record show for Cc1ncsc1-c1ccc(CNC(=O)[C@@H]2C[C@@H](O)CN2C(=O)[C@@H](NC(=O)C2(F)CC2)C(C)(C)C)c(OCCN2CCN(c3ccc(C(=O)Nc4cccc(Sc5cnc(N6CCC(C)(CN)CC6)cn5)c4Cl)nc3)CC2)c1 ?
[out] 22.7

[in] Query for SHP2 protein (Homo sapiens): what SHP2 degradation (%) 10 nM does the record show for Cc1ncsc1-c1ccc(CNC(=O)[C@@H]2C[C@@H](O)CN2C(=O)[C@@H](NC(=O)C2(F)CC2)C(C)(C)C)c(OCCN2CCN(c3nccc(C(=O)Nc4cccc(Sc5cnc(N6CCC(C)(CN)CC6)cn5)c4Cl)n3)CC2)c1 ?
[out] −29.2

[in] Query for SHP2 protein (Homo sapiens): what SHP2 degradation (%) 10 nM does the record show for Cc1ncsc1-c1ccc(CNC(=O)[C@@H]2C[C@@H](O)CN2C(=O)[C@@H](NC(=O)C2(F)CC2)C(C)(C)C)c(OCCN2CCN(c3cnc(C(=O)Nc4cccc(Sc5cnc(N6CCC(C)(CN)CC6)cn5)c4Cl)nc3)CC2)c1 ?
[out] 79.9

[in] Query for SHP2 protein (Homo sapiens): what SHP2 degradation (%) 10 nM does the record show for Cc1ncsc1-c1ccc(CNC(=O)[C@@H]2C[C@@H](O)CN2C(=O)[C@@H](NC(=O)C2(F)CC2)C(C)(C)C)c(OCCN2CCN(CC(=O)Nc3cccc(Sc4cnc(N5CCC(C)(CN)CC5)cn4)c3Cl)C(=O)C2)c1 ?
[out] 94.2

[in] Query for SHP2 protein (Homo sapiens): what SHP2 degradation (%) 10 nM does the record show for Cc1ncsc1-c1ccc(CNC(=O)[C@@H]2C[C@@H](O)CN2C(=O)[C@@H](NC(=O)C2(F)CC2)C(C)(C)C)c(OCCN2CCN(C(=O)CC(=O)Nc3cccc(Sc4ncc(N5CCC(C)(CN)CC5)nc4N)c3Cl)CC2)c1 ?
[out] 85.9

For each of the compounds below, state SHP2 degradation (%) 10 nM.
1. Cc1ncsc1-c1ccc(CNC(=O)[C@@H]2C[C@@H](O)CN2C(=O)[C@@H](NC(=O)C2(F)CC2)C(C)(C)C)c(OCCCC2CCN(C(=O)CC(=O)Nc3cccc(Sc4cnc(N5CCC(C)(CN)CC5)cn4)c3Cl)CC2)c1
2. COC(=O)[C@@H]1CN(C(=O)CC(=O)Nc2cccc(Sc3cnc(N4CCC(C)(CN)CC4)cn3)c2Cl)CCN1CCOc1cc(-c2scnc2C)ccc1CNC(=O)[C@@H]1C[C@@H](O)CN1C(=O)[C@@H](NC(=O)C1(F)CC1)C(C)(C)C

[out]
77.0
79

For each of the compounds below, state SHP2 degradation (%) 10 nM.
1. Cc1ncsc1-c1ccc(CNC(=O)[C@@H]2C[C@@H](O)CN2C(=O)[C@@H](NC(=O)C2(F)CC2)C(C)(C)C)c(OCCCN2CCC(CC(=O)Nc3cccc(Sc4ncc(N5CCC(C)(CN)CC5)nc4N)c3Cl)CC2)c1
2. Cc1ncsc1-c1ccc(CNC(=O)[C@@H]2C[C@@H](O)CN2C(=O)[C@@H](NC(=O)C2(F)CC2)C(C)(C)C)c(OCCCC2CCN(C(=O)C(=O)Nc3cccc(Sc4cnc(N5CCC(C)(CN)CC5)cn4)c3Cl)CC2)c1

[out]
1: 33.7; 2: 19

[in] Query for SHP2 protein (Homo sapiens): what SHP2 degradation (%) 10 nM does the record show for COC(=O)[C@H]1CN(C(=O)CC(=O)Nc2cccc(Sc3cnc(N4CCC(C)(CN)CC4)cn3)c2Cl)CCN1CCOc1cc(-c2scnc2C)ccc1CNC(=O)[C@@H]1C[C@@H](O)CN1C(=O)[C@@H](NC(=O)C1(F)CC1)C(C)(C)C ?
[out] 68.3
